Documented pIC50 across a set of molecules
- subject-of-test: pseudo-kinase domain (JH2, amino-acids 536-812) of human V617F mutant JAK2 (Homo sapiens, UniProt O60674, F794H/V617F/W659A/W777A)
- Construct: pseudo-kinase domain (JH2, amino-acids 536-812 with 3 surface mutations W659A, W777A, F794H)
- Sequence (O60674 536-812 V617F/W659A/W777A/F794H): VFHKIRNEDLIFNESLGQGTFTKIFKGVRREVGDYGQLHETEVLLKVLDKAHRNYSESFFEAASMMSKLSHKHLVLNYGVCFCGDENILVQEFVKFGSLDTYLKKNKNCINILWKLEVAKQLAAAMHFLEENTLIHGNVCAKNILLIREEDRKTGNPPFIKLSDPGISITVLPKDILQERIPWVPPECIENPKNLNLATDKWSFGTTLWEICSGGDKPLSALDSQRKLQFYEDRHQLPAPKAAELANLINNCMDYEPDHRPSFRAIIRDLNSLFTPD
- assay-remarks: JAK2 LanthaScreen JH2-V617F Binding Assay
- measurement-context: 1 hour at 25° C.
pIC50: −log10 of the molar value. Where a name gives a salt, the structure may show the parent alone.

# annotated cases, reported pIC50 shown
CC(=O)N1CCC(N2CC3(C2)C(=O)N(C)c2cnc4[nH]c(-c5ccc(CN6CCC(S(C)(=O)=O)CC6)cc5)c(-c5ccccc5)c4c23)CC1	6.30 to 7.00
CC(=O)N1CC(CC#N)(N2CCC3(CC2)C(=O)N(C)c2cnc4[nH]c(-c5cnn(C)c5)c(-c5ccccc5)c4c23)C1 [Example 24, trifluoroacetate salt]	≥ 7.00

Recorded pIC50 (molecule [2H]C([2H])([2H])n1ncc2cc(-c3c(-c4cnn(C)c4)[nH]c4ncc5c(c34)C3(CCN([C@](C)(CC#N)COC)CC3)C(=O)N5C)ccc21 (single isomer, unassigned) [Example 80a] ): ≥ 7.00

// field: pIC50; key: CCNC(=O)N1CC(CC#N)(N2CCC3(CC2)C(=O)N(C)c2cnc4[nH]c(-c5cnn(C)c5)c(-c5ccccc5)c4c23)C1 [Example 25, trifluoroacetate salt] ; value = ≥ 7.00
